kd values for the molecules below.
# Target: T1, MCSF (Homo sapiens, UniProt P09603)
# T1 sequence (P09603 33-255 limits assumed): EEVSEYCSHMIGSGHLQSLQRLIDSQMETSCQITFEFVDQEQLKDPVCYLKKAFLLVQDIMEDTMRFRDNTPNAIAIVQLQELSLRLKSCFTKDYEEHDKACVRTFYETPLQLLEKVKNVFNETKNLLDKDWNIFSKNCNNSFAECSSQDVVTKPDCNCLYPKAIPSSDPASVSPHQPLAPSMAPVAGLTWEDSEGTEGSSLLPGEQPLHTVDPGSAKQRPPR
# Test summary: Biacore analysis of Human Engineered RX1 antibodies, M-CSF immobilized (Example 13)
# Format: binding
# Stated conditions: Table 11, 25° C.
Respond with the bare value in s⁻¹.

>>> numeric_readout("heRX1-9.G2: Human Engineered RX1: light chain Low + Mod Risk (Germline), heavy chain Low Risk (Kabat), Gamma 2 (antibody, left off: a dimerising Fc or GST) heavy: DVQLQESGPGLVKPSQTLSLTCTVTDYSITSDYAWNWIRQFPGKKLEWMGYISYSGSTSYNPSLKSRITISRDTSKNQFSLQLNSVTAADTATYYCASFDYAHAMDYWGQGTTVTVSS light: DIVLTQSPAFLSVTPGEKVTFTCQASQSIGTSIHWYQQKTDQAPKLLIKYASESISGIPSRFSGSGSGTDFTLTISSVEAEDAADYYCQQINSWPTTFGGGTKLEIKRT")
0.00144

Turning now to a further record.
Ask | # input molecule: heRX1-5.G2: Human Engineered RX1: light chain Low Risk (Kabat) − R54 to S, heavy chain Low Risk (Kabat), Gamma 2 (antibody, left off: a dimerising Fc or GST) heavy: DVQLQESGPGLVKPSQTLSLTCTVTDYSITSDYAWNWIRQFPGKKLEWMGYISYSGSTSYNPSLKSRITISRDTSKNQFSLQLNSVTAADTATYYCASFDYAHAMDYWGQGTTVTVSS light: EIVLTQSPGTLSVSPGERVTFSCRASQSIGTSIHWYQQKTGQSPRLLIKYASESISGIPDRFSGSGSGTDFTLTISRVESEDFADYYCQQINSWPTTFGQGTKLEIKRT ; wanted: its kd
Reply | 0.00129
